Target: Cholinesterase (Homo sapiens)
Sequence (P06276 whole entry): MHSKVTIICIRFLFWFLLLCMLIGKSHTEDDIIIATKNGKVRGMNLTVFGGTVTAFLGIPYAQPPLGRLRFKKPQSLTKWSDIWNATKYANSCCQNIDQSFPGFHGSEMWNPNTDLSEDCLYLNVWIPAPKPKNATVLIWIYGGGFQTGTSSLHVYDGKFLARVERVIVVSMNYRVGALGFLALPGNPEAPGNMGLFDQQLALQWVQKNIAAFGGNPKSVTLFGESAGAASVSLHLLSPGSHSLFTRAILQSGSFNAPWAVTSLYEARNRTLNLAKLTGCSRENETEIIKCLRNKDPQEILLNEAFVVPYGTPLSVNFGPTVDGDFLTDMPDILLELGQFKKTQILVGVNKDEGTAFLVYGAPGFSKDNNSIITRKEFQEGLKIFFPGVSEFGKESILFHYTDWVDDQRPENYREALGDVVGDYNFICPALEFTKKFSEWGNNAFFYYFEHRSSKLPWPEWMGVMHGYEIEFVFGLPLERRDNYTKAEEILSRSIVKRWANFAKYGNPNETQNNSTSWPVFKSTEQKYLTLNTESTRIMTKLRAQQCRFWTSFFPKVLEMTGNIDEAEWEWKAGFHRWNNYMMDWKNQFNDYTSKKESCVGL
Assay: Inhibitory concentration against human serum butyrylcholinesterase activity
pIC50: −log10 of the molar value.
// reported pIC50 for each item listed

{"MOLECULE": "CC(NC(=O)Oc1cccc2c1OCC1CCN(C)C21)c1ccccc1 (stereo not drawn)", "pIC50": 6.68}
{"MOLECULE": "CNC(=O)Oc1cccc2c1CCC1CCN(C)C21 (stereo not drawn)", "pIC50": 7.61}
{"MOLECULE": "CCNC(=O)Oc1cccc2c1CCC1CCN(C)C21 (stereo not drawn)", "pIC50": 7.52}
{"MOLECULE": "CNC(=O)Oc1cccc2c1SCC1CCN(C)C21 (stereo not drawn)", "pIC50": 7.98}
{"MOLECULE": "CCNC(=O)Oc1cccc2c1OCC1CCN(C)C21 (stereo not drawn)", "pIC50": 7.35}
{"MOLECULE": "CNC(=O)Oc1cccc(C(C)N(C)C)c1 (stereo not drawn)", "pIC50": 6.39}
{"MOLECULE": "CCCCCCCNC(=O)Oc1cccc2c1OCC1CCN(C)C21 (stereo not drawn)", "pIC50": 8.90}
{"MOLECULE": "CNC(=O)Oc1cccc2c1OCC1CCN(C)C21 (stereo not drawn)", "pIC50": 7.23}

Data origin, for the record: ChEMBL document CHEMBL1137822
